Where these numbers come from: paper PMC3561458

- experiment summary: Plasma pharmacokinetics
- Assay type: in vivo, human
- measurement context: human, plasma, oral, 100 mg/day, AUCt, S1 100 mg/day, Day 7, mean±SD, n=6

compound | AUC(0-t) / µM·h
CNC(=O)c1nn(C)c2c1C(C)(C)Cc1cnc(Nc3ccc(N4CCN(C)CC4)cc3)nc1-2 [PHA-848125AC] | 43.4

----------
- experiment summary: Plasma pharmacokinetics
- Assay type: in vivo, human
- measurement context: human, plasma, oral, 50 mg/day, AUCt, S1 50 mg/day, Day 7, mean±SD, n=3
property measured: AUC(0-t) (µM·h)

compound | quantity unit | experimental result
CNC(=O)c1nn(C)c2c1C(C)(C)Cc1cnc(Nc3ccc(N4CCN(C)CC4)cc3)nc1-2 [PHA-848125AC] | µM·h | 11.7

----------
- experiment summary: Plasma pharmacokinetics
- Assay type: in vivo, human
- measurement context: human, plasma, oral, 50 mg/day, Vz/F, S1 50 mg/day, mean±SD, n=2
property measured: Vd/F (L)

compound | experimental result
CNC(=O)c1nn(C)c2c1C(C)(C)Cc1cnc(Nc3ccc(N4CCN(C)CC4)cc3)nc1-2 [PHA-848125AC] | 707

----------
- experiment summary: Plasma pharmacokinetics
- Assay type: in vivo, human
- measurement context: human, plasma, oral, 200 mg/day, Vz/F, S2 200 mg/day, mean±SD, n=3

molecule | Vd/F (L)
CNC(=O)c1nn(C)c2c1C(C)(C)Cc1cnc(Nc3ccc(N4CCN(C)CC4)cc3)nc1-2 [PHA-848125AC] | 473

----------
- experiment summary: Plasma pharmacokinetics
- Type: in vivo, human
- measurement context: human, plasma, oral, 180 mg/day, AUCt, S2 180 mg/day, Day 18, mean±SD, n=4
property measured: AUC(0-t) (µM·h)

molecule | property measured | experimental result
CNC(=O)c1nn(C)c2c1C(C)(C)Cc1cnc(Nc3ccc(N4CCN(C)CC4)cc3)nc1-2 [PHA-848125AC] | AUC(0-t) | 35.1

----------
- experiment summary: Plasma pharmacokinetics
- Format: in vivo, human
- measurement context: human, plasma, oral, 200 mg/day, AUC0-24, S1 200 mg/day, Day 1, mean±SD, n=6

compound | AUC(0-t)
CNC(=O)c1nn(C)c2c1C(C)(C)Cc1cnc(Nc3ccc(N4CCN(C)CC4)cc3)nc1-2 [PHA-848125AC] | 9.6 µM·h

----------
- experiment summary: Plasma pharmacokinetics
- Type: in vivo, human
- measurement context: human, plasma, oral, 300 mg/day, Cmax, S1 300 mg/day, Day 1, n=1

compound | Cmax [nM]
CNC(=O)c1nn(C)c2c1C(C)(C)Cc1cnc(Nc3ccc(N4CCN(C)CC4)cc3)nc1-2 [PHA-848125AC] | 1200

----------
- experiment summary: Plasma pharmacokinetics
- Type: in vivo, human
- measurement context: human, plasma, oral, half-life, terminal, overall

compound | half-life
CNC(=O)c1nn(C)c2c1C(C)(C)Cc1cnc(Nc3ccc(N4CCN(C)CC4)cc3)nc1-2 [PHA-848125AC] | ~33 h

----------
- experiment summary: Plasma pharmacokinetics
- Type: in vivo, human
- measurement context: human, plasma, oral, 180 mg/day, AUC0-24, S2 180 mg/day, Day 1, mean±SD, n=4

compound | AUC(0-t)
CNC(=O)c1nn(C)c2c1C(C)(C)Cc1cnc(Nc3ccc(N4CCN(C)CC4)cc3)nc1-2 [PHA-848125AC] | 7 µM·h

----------
- experiment summary: Plasma pharmacokinetics
- Type: in vivo, human
- measurement context: human, plasma, oral, 200 mg/day, AUCt, S1 200 mg/day, Day 7, mean±SD, n=6

compound | AUC(0-t)
CNC(=O)c1nn(C)c2c1C(C)(C)Cc1cnc(Nc3ccc(N4CCN(C)CC4)cc3)nc1-2 [PHA-848125AC] | 63.5 µM·h

----------
- experiment summary: Plasma pharmacokinetics
- Format: in vivo, human
- measurement context: human, plasma, oral, 100 mg/day, AUC0-24, S1 100 mg/day, Day 1, mean±SD, n=6

molecule | AUC(0-t) [µM·h]
CNC(=O)c1nn(C)c2c1C(C)(C)Cc1cnc(Nc3ccc(N4CCN(C)CC4)cc3)nc1-2 [PHA-848125AC] | 6

----------
- experiment summary: Plasma pharmacokinetics
- Format: in vivo, human
- measurement context: human, plasma, oral, 50 mg/day, AUC0-24, S1 50 mg/day, Day 1, mean±SD, n=3
property measured: AUC(0-t) (µM·h)

compound | experimental result
CNC(=O)c1nn(C)c2c1C(C)(C)Cc1cnc(Nc3ccc(N4CCN(C)CC4)cc3)nc1-2 [PHA-848125AC] | 2.5

----------
- experiment summary: Plasma pharmacokinetics
- Format: in vivo, human
- measurement context: human, plasma, oral, 150 mg/day, AUC0-24, S2 150 mg/day, Day 1, mean±SD, n=4

compound | AUC(0-t) [µM·h]
CNC(=O)c1nn(C)c2c1C(C)(C)Cc1cnc(Nc3ccc(N4CCN(C)CC4)cc3)nc1-2 [PHA-848125AC] | 7.2

----------
- experiment summary: Plasma pharmacokinetics
- Format: in vivo, human
- measurement context: human, plasma, oral, 200 mg/day, Cmax, S1 200 mg/day, Day 7, mean±SD, n=6

compound | Cmax (µM)
CNC(=O)c1nn(C)c2c1C(C)(C)Cc1cnc(Nc3ccc(N4CCN(C)CC4)cc3)nc1-2 [PHA-848125AC] | 1.7

----------
- experiment summary: Plasma pharmacokinetics
- Format: in vivo, human
- measurement context: human, plasma, oral, 150 mg/day, Vz/F, S2 150 mg/day, mean±SD, n=4
property measured: Vd/F (L)

molecule | experimental result
CNC(=O)c1nn(C)c2c1C(C)(C)Cc1cnc(Nc3ccc(N4CCN(C)CC4)cc3)nc1-2 [PHA-848125AC] | 1010

----------
- experiment summary: Plasma pharmacokinetics
- Format: in vivo, human
- measurement context: human, plasma, oral, 50 mg/day, Cmax, S1 50 mg/day, Day 7, mean±SD, n=3

compound | Cmax (nM)
CNC(=O)c1nn(C)c2c1C(C)(C)Cc1cnc(Nc3ccc(N4CCN(C)CC4)cc3)nc1-2 [PHA-848125AC] | 400

----------
- experiment summary: Plasma pharmacokinetics
- Type: in vivo, human
- measurement context: human, plasma, oral, 180 mg/day, Cmax, S2 180 mg/day, Day 1, mean±SD, n=4

compound | Cmax
CNC(=O)c1nn(C)c2c1C(C)(C)Cc1cnc(Nc3ccc(N4CCN(C)CC4)cc3)nc1-2 [PHA-848125AC] | 500 nM

----------
- experiment summary: Plasma pharmacokinetics
- Format: in vivo, human
- measurement context: human, plasma, oral, 180 mg/day, AUC0-24, S2 180 mg/day, Day 18, mean±SD, n=4

compound | AUC(0-t)
CNC(=O)c1nn(C)c2c1C(C)(C)Cc1cnc(Nc3ccc(N4CCN(C)CC4)cc3)nc1-2 [PHA-848125AC] | 17 µM·h

----------
- experiment summary: Plasma pharmacokinetics
- Type: in vivo, human
- measurement context: human, plasma, oral, 200 mg/day, AUC0-24, S1 200 mg/day, Day 7, mean±SD, n=6

molecule | AUC(0-t) [µM·h]
CNC(=O)c1nn(C)c2c1C(C)(C)Cc1cnc(Nc3ccc(N4CCN(C)CC4)cc3)nc1-2 [PHA-848125AC] | 29

----------
- experiment summary: Plasma pharmacokinetics
- Format: in vivo, human
- measurement context: human, plasma, oral, 300 mg/day, AUC0-24, S1 300 mg/day, Day 1, n=1

compound | AUC(0-t), µM·h
CNC(=O)c1nn(C)c2c1C(C)(C)Cc1cnc(Nc3ccc(N4CCN(C)CC4)cc3)nc1-2 [PHA-848125AC] | 23

----------
- experiment summary: Plasma pharmacokinetics
- Format: in vivo, human
- measurement context: human, plasma, oral, 150 mg/day, AUC0-24, S2 150 mg/day, Day 18, mean±SD, n=4
property measured: AUC(0-t) (µM·h)

molecule | experimental result
CNC(=O)c1nn(C)c2c1C(C)(C)Cc1cnc(Nc3ccc(N4CCN(C)CC4)cc3)nc1-2 [PHA-848125AC] | 23

----------
- experiment summary: Plasma pharmacokinetics
- Assay type: in vivo, human
- measurement context: human, plasma, oral, 200 mg/day, AUC0-24, S2 200 mg/day, Day 18, mean±SD, n=3

molecule | quantity unit | AUC(0-t)
CNC(=O)c1nn(C)c2c1C(C)(C)Cc1cnc(Nc3ccc(N4CCN(C)CC4)cc3)nc1-2 [PHA-848125AC] | µM·h | 35

----------
- experiment summary: Plasma pharmacokinetics
- Assay type: in vivo, human
- measurement context: human, plasma, oral, 200 mg/day, AUC0-24, S2 200 mg/day, Day 1, mean±SD, n=3

molecule | AUC(0-t) (µM·h)
CNC(=O)c1nn(C)c2c1C(C)(C)Cc1cnc(Nc3ccc(N4CCN(C)CC4)cc3)nc1-2 [PHA-848125AC] | 12
